B1: C-terminal 3× FLAG-tagged WT Tfb2 [Saccharomyces cerevisiae] / Ssl2 [S. cerevisiae (endogenous in yeast)] (parent complex)
chain 1: MSDYSLKHSVTQYLEEIPQQVQNRLYTSPATCLAIYRILPPLAKFFIMAMVFNENEVPLLDLDKWVNSNGKLQFQNAIKSMKSLHLLIPNKSSGTLMINLNPTFKISLRNALTGGEVQNSFGVVVEENVVSLDLLDEYSANKWETILHFMVGTPLAKIPSEKVLNLLKHSKLMEEVNSTGEFKITNEGFQFLLQEINSQLWTLLLQYLKMIETSKMDLVDVLHFIFMLGALEVGKAYKIDALSETQRIMLQDMRDYGLVFQKHSNDSIFYPTKLALMLTSDTKTIRSASNAMDSVLRQNREEPSVNEDGANGKSTTDITTSDDLNKAGLKNQDIPDGSLIVETNFKIYSYSNSPLQIAVLSLFVHLKARFVNMVLGQITRESIRRALTNGITADQIIAYLETHAHPQMRRLAEEKLEKKLELDPNCKEPLQVLPPTVVDQIRLWQLELDRVITYEGSLYSDFETSQEYNLLSKYAQDIGVLLWKDDKKKKFFISKEGNSQVLDFAKRKLKKKQ
chain 2: MTDVEGYQPKSKGKIFPDMGESFFSSDEDSPATDAEIDENYDDNRETSEGRGERDTGAMVTGLKKPRKKTKSSRHTAADSSMNQMDAKDKALLQDTNSDIPADFVPDSVSGMFRSHDFSYLRLRPDHASRPLWISPSDGRIILESFSPLAEQAQDFLVTIAEPISRPSHIHEYKITAYSLYAAVSVGLETDDIISVLDRLSKVPVAESIINFIKGATISYGKVKLVIKHNRYFVETTQADILQMLLNDSVIGPLRIDSDHQVQPPEDVLQQQLQQTAGKPATNVNPNDVEAVFSAVIGGDNEREEEDDDIDAVHSFEIANESVEVVKKRCQEIDYPVLEEYDFRNDHRNPDLDIDLKPSTQIRPYQEKSLSKMFGNGRARSGIIVLPCGAGKTLVGITAACTIKKSVIVLCTSSVSVMQWRQQFLQWCTLQPENCAVFTSDNKEMFQTESGLVVSTYSMVANTRNRSHDSQKVMDFLTGREWGFIILDEVHVVPAAMFRRVVSTIAAHAKLGLTATLVREDDKIGDLNFLIGPKLYEANWMELSQKGHIANVQCAEVWCPMTAEFYQEYLRETARKRMLLYIMNPTKFQACQFLIQYHERRGDKIIVFSDNVYALQEYALKMGKPFIYGSTPQQERMNILQNFQYNDQINTIFLSKVGDTSIDLPEATCLIQISSHYGSRRQEAQRLGRILRAKRRNDEGFNAFFYSLVSKDTQEMYYSTKRQAFLVDQGYAFKVITHLHGMENIPNLAYASPRERRELLQEVLLKNEEAAGIEVGDDADNSVGRGSNGHKRFKSKAVRGEGSLSGLAGGEDMAYMEYSTNKNKELKEHHPLIRKMYYKNLKK

# Variants of: B1
# experiment: FLAG IP and Western blot; whole-cell extracts; FLAG-tagged Tfb2 variants coexpressed with endogenous Tfb2; two biological replicates; read off a plot
recorded endpoint: response

> print(dat)
                              residue.change  recorded.endpoint                   measured.value
 1  chain 1 G390A, chain 1 I391A, chain 1 T392A           response    ~0.2 Western Signal/Tfb2-FLAG
 2                             chain 1 F370A           response  ~0.085 Western Signal/Tfb2-FLAG
 3  chain 1 I378A, chain 1 T379A, chain 1 R380A           response   ~0.21 Western Signal/Tfb2-FLAG
 4  chain 1 L339A, chain 1 I340A, chain 1 V341A           response   ~0.11 Western Signal/Tfb2-FLAG
 5  chain 1 I347A, chain 1 Y348A, chain 1 Y350A           response   ~0.14 Western Signal/Tfb2-FLAG
 6              chain 1 Y399A, chain 1 L400A           response   ~0.28 Western Signal/Tfb2-FLAG
 7              chain 1 E342R, chain 1 K346E           response   ~0.11 Western Signal/Tfb2-FLAG
 8  chain 1 D439A, chain 1 E447A, chain 1 R450A           response   ~0.58 Western Signal/Tfb2-FLAG
 9                             chain 1 E342F           response  ~0.085 Western Signal/Tfb2-FLAG
10                             chain 1 E447K           response    ~0.5 Western Signal/Tfb2-FLAG
11  chain 1 L360A, chain 1 L362A, chain 1 F363A           response   ~0.17 Western Signal/Tfb2-FLAG
12              chain 1 I378A, chain 1 T379A           response   ~0.29 Western Signal/Tfb2-FLAG
13              chain 1 I396A, chain 1 I397A           response   ~0.38 Western Signal/Tfb2-FLAG
14              chain 1 I347A, chain 1 Y348A           response   ~0.23 Western Signal/Tfb2-FLAG
15              chain 1 Y348A, chain 1 Y350A           response   ~0.19 Western Signal/Tfb2-FLAG
16  chain 1 Q395A, chain 1 I396A, chain 1 I397A           response   ~0.35 Western Signal/Tfb2-FLAG
17              chain 1 R369A, chain 1 F370A           response   ~0.07 Western Signal/Tfb2-FLAG
